- target: YA peptide (Octet assay of PS557 variants)
- protocol_summary: Octet (BLI), peptide on sensor, response after 200 s association
Would you mind telling me the reported Octet response of each entry?

Query: Field request: Octet response | item: PS796 (designed binder) MPTAASATESAIEDTPAPARPEVDGRTKPKRQPRYHVVLWDDDDHTYQYVVVMLQSLFGHPPERGYRLAKEMDTQGRVIVLTTTREHAELKRDQIHAFGYDRLLARSKGSMKASIEAEE
Response: 1.23 nm

Query: Any idea what Octet response was measured for PS801/PS814 (designed binder) MPTAASATESAIEDTPAPARPEVDGRTKPKRQPRYHVVLWNDDDHTYQYVVVMLQSLFGHPPKRGYRLAKEVDTQGRVIVLTTTREHAELKRDQIHAFGYDRLLARSKGSMKASIEAEE ?
Response: 0.054 nm
